The following compounds are shown together with reported pIC50 values.
Study System: ghrelin receptor (HEK-GHSR1 stable cells) (Homo sapiens)
Construct: expressed in transfected cells
Sequence (Q92847 whole entry): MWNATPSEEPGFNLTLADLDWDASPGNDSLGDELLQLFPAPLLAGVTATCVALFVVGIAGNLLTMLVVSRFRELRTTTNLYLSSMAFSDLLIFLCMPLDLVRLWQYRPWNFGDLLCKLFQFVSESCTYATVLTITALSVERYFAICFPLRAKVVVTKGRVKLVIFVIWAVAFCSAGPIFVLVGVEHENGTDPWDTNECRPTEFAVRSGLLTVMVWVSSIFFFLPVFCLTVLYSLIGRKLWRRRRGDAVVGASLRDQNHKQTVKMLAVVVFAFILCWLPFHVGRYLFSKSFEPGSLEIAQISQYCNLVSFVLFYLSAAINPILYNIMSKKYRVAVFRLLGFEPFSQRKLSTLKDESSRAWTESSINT
Method Description: Ghrelin receptor inverse agonist assay (HTRF IP-one), Method B4
Assay type: cell-based
Recorded Conditions: inverse agonist at the ghrelin receptor, Method B4
Source text: B4. Ghrelin Receptor Inverse Agonist Assay […] In addition, the following method can be utilized to assay for inverse agonist activity. […] • 1. […] Read the fluorescence in a plate reader (Tecan GeniosPro or similar) […]
pIC50: −log10 of the molar value.

CC(O)[C@H]1C(=O)N[C@H](Cc2c[nH]c3ccccc23)C(=O)N[C@H](C)CCc2ccccc2OCCN[C@@H](C2CC2)C(=O)N1C (stereo partly drawn) ... 6.30 to 7.00
CC(O)[C@H]1C(=O)N[C@H](Cc2ccc(Cl)cc2)C(=O)N[C@H](C)CCc2ccccc2OCCN[C@@H](C(C)(C)C)C(=O)N1C (stereo partly drawn) ... 7.30 to 8.00
CCC1CCc2ccc(Cl)cc2OCCNC(C(C)C)C(=O)N(C)C(C(C)O)C(=O)NC(Cc2ccccc2)C(=O)N1 (stereo not drawn) ... 6.30 to 7.00

Just so you know, measured pIC50 for CC[C@@H]1CCc2c(F)cccc2OCCN[C@@H](C(C)C)C(=O)N(C)[C@@H](C(C)O)C(=O)N[C@H](Cc2c[nH]c3ccccc23)C(=O)N1 (stereo partly drawn) came out at 6.30 to 7.00

# pIC50 (compound: CCC(C)C1NCCOc2ccccc2C=CCNC(=O)C(Cc2ccccc2OC)NC(=O)C(C(C)O)N(C)C1=O (stereo not drawn) ) is 6.30 to 7.00

The reported pIC50 of the compound CC(O)[C@H]1C(=O)N[C@H](Cc2ccc(Cl)cc2)C(=O)NC/C=C/c2ccccc2OCCN[C@@H](C2(C)CC2)C(=O)N1C (stereo partly drawn) was 7.00 to 7.30
